- system: human CCR8 (HA-tagged) on stably transfected HEK293 cells (human, UniProt P51685 1-355)
- assay.details: flow cytometry on cells
result.type: IC50 (nM)
Numbers only, in nM.

Query: Bench note: what IC50 did unlabeled human recombinant CCL17 (ligand, UniProt Q92583 24-94, looked up) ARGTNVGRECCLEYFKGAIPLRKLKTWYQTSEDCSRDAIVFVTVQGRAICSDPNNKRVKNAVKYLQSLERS show?
Response: 9.4

// data source = paper PMC7616283
